protocolDescription: Calculation of RLTEC and MPEC50 for tafenoquine against SARS-CoV-2
conditionDescription: human, lung/whole blood; assumed to be the same as rats; read-out: Ratio of lung to whole blood concentration for humans
measuredQuantity: Kp
In your answer, state the number alone without any accompanying words.

Ask: Name the recorded Kp for COc1cc(C)c2c(Oc3cccc(C(F)(F)F)c3)c(OC)cc(NC(C)CCCN)c2n1 (stereo not shown) [Tafenoquine] .
Reply: 250

###

Tested on: HCMV strain AD169
protocolDescription: CPE assay for HCMV in HFF cells
Format: cell-based
conditionDescription: Human betaherpesvirus 5, AD169
pEC50: −log10 of the molar value.
measuredQuantity: pEC50

Ask: Look at this molecule and give its reported pEC50. COc1cc(C)c2c(Oc3cccc(C(F)(F)F)c3)c(OC)cc(NC(C)CCCN)c2n1 (stereo not shown) [Tafenoquine]
Reply: < 5.22

###

protocolDescription: in vitro
conditionDescription: African green monkey
measuredQuantity: CC50

Ask: Sample CCC(CC)COC(=O)[C@H](C)N[P@](=O)(OC[C@H]1O[C@@](C#N)(c2ccc3c(N)ncnn23)[C@H](O)[C@@H]1O)Oc1ccccc1 — what was its CC50?
Reply: > 100 µM

###

Test system: Vero E6 cells
conditionDescription: African green monkey
measuredQuantity: CC50 (µM)
Supply the numeric figure in µM, leaving out any unit text.

Ask: Can you share its CC50? I mean this molecule: COc1cc(C)c2c(Oc3cccc(C(F)(F)F)c3)c(OC)cc(NC(C)CCCN)c2n1 (stereo not shown)
Reply: 37.2
